assayedSystem: T1, full-length human Regnase-1 with a FLAG tag on the N-terminal side and a biotin ligase BirA recognition … (human, UniProt Q5D1E8 1-599, biotinylated at the BirA recognition sequence when required)
T1 sequence: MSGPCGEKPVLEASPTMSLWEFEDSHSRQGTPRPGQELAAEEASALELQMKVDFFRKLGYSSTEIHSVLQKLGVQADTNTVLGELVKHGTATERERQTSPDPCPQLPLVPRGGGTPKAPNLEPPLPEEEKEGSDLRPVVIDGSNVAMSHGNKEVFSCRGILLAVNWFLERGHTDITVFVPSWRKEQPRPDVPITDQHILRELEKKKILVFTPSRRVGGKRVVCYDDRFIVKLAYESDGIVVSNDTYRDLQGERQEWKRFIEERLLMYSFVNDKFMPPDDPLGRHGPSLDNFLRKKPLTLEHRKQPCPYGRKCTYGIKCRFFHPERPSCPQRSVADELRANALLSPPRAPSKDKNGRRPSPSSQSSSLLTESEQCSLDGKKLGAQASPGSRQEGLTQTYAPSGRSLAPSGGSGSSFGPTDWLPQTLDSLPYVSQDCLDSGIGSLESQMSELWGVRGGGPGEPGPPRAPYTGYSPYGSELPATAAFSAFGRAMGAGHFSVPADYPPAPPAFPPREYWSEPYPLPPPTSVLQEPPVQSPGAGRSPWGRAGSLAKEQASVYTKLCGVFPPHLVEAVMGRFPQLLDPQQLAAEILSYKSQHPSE
assayExplanation: cell-based or functional assay
readoutType: 50% inhibition concentration, Regnase-1 phosphorylation by IKKβ (AlphaScreen) (µM)

| binder | unitSpec | reportedValue |
| --- | --- | --- |
| XNSWYINIWGHD (HELM PEPTIDE1{[meA].N.S.W.Y.I.N.I.W.G.H.D.[C1CCN([*:1])C1]}$PEPTIDE1,PEPTIDE1,1:R1-12:R3$$$V2.0; SMILES CC[C@H](C)[C@@H]1NC(=O)[C@H](CC(N)=O)NC(=O)[C@H]([C@@H](C)CC)NC(=O)[C@H](Cc2ccc(O)cc2)NC(=O)[C@H](Cc2c[nH]c3ccccc23)NC(=O)[C@H](CO)NC(=O)[C@H](CC(N)=O)NC(=O)[C@H](C)N(C)C(=O)C[C@@H](C(=O)N2CCCC2)NC(=O)[C@H](Cc2c[nH]cn2)NC(=O)CNC(=O)[C@H](Cc2c[nH]c3ccccc23)NC1=O) [PP15] | µM | 5.6 |
